experiment.notes: Evaluation of cell membrane permeability (MDCKII permeation test, Papp)
Format: in vitro ADME
stated.conditions: MDCK; MDCKII cell layer, 10 μM in HBSS, apical to basal, 2 hours, 37° C.
Numbered stars: 1 amine (or outer) side, 2 acyl side, 3 side chain; on linkers, the order of the positions; unused ones are H or OH. Square brackets hold non-standard residues; d marks the D form. Peptide text beside a SMILES is read from it. Phe(4-Cl) = N[C@@H](Cc1ccc(Cl)cc1)C(=O)O; X1 = O=C(CSC[C@H](Cc1cscn1)N[*:1])[*:2]; Phe(4-F) = N[C@@H](Cc1ccc(F)cc1)C(=O)O; NHCH2CH2SCH2CO = O=C(CSCCN[*:1])[*:2]; NMeF = CN[C@@H](Cc1ccccc1)C(=O)O; hSer = N[C@@H](CCO)C(=O)O; NMeA = CN[C@@H](C)C(=O)O; dNMeA = CN[C@H](C)C(=O)O; Nme = COCCNCC(=O)O
parameter: Papp A→B

// known answers, use as guide
COCC[C@@H]1NC(=O)[C@H](C)N(C)C(=O)[C@H](Cc2ccccc2)N(C)C(=O)[C@H](Cc2ccc(Cl)cc2)NC(=O)[C@H]([C@@H](C)O)NC(=O)[C@H](Cc2ccc(F)cc2)NC(=O)[C@@H]2CCCN2C(=O)CSCCNC(=O)[C@H](C)N(C)C1=O [compound 4] (cyclo([NMeA][hSer](Me)[NMeA][NHCH2CH2SCH2CO]P[Phe(4-F)]T[Phe(4-Cl)][NMeF])) : 0.1 to 0.25 ×10⁻⁶ cm/s
COCC[C@@H]1NC(=O)[C@@H](C)N(C)C(=O)[C@H](Cc2ccccc2)N(C)C(=O)[C@H](Cc2ccc(Cl)cc2)NC(=O)[C@H]([C@@H](C)O)NC(=O)[C@H](Cc2ccc(F)cc2)NC(=O)[C@@H]2CCCN2C(=O)CSCCNC(=O)[C@H](C)N(C)C1=O [compound 3] (cyclo([NMeA][NHCH2CH2SCH2CO]P[Phe(4-F)]T[Phe(4-Cl)][NMeF][dNMeA][hSer](Me))) : 0.25 to 0.5 ×10⁻⁶ cm/s
COCC[C@@H]1NC(=O)[C@H](C)N(C)C(=O)[C@H](Cc2ccccc2)N(C)C(=O)[C@H](Cc2ccc(Cl)cc2)NC(=O)[C@H]([C@@H](C)O)NC(=O)[C@H](Cc2ccc(F)cc2)NC(=O)[C@@H]2CCCN2C(=O)CSC[C@H](Cc2cscn2)NC(=O)[C@H](C)N(C)C1=O [compound 5] (cyclo([NMeA][hSer](Me)[NMeA][X1]P[Phe(4-F)]T[Phe(4-Cl)][NMeF])) : 0.1 to 0.25 ×10⁻⁶ cm/s

Let us examine a further case.
# input Determine its reported Papp A→B: COCC[C@@H]1NC(=O)[C@H](C)N(C)C(=O)[C@H](Cc2ccccc2)N(C)C(=O)[C@H](Cc2ccc(Cl)cc2)NC(=O)[C@H]([C@@H](C)O)NC(=O)[C@H](Cc2ccc(F)cc2)NC(=O)CN(CCOC)C(=O)CSC[C@H](Cc2cscn2)NC(=O)[C@H](C)N(C)C1=O [compound 6] (cyclo([NMeA][hSer](Me)[NMeA][X1][Nme][Phe(4-F)]T[Phe(4-Cl)][NMeF]))
# output 0.1 to 0.25 ×10⁻⁶ cm/s
